assay: Oral bioavailability in cynomolgus monkey at 10 mg/kg; format: ADME, organism-based, Macaca fascicularis; details: in vivo
RECORDED_ENDPOINT: bioavailability
Express your answer as a number followed by its unit.

Input line: What value of measured bioavailability is listed for COc1cc(-n2cnc3cc(-c4ccc(Cl)cc4)sc3c2=O)ccc1OCC1(OP(=O)(O)O)CC(F)(F)C1 ?
Output line: 46%

====

biological target: UniProtKB Q12809; assay: Inhibition of human ERG at 1 uM by patch clamp assay
Sequence (Q12809 whole entry): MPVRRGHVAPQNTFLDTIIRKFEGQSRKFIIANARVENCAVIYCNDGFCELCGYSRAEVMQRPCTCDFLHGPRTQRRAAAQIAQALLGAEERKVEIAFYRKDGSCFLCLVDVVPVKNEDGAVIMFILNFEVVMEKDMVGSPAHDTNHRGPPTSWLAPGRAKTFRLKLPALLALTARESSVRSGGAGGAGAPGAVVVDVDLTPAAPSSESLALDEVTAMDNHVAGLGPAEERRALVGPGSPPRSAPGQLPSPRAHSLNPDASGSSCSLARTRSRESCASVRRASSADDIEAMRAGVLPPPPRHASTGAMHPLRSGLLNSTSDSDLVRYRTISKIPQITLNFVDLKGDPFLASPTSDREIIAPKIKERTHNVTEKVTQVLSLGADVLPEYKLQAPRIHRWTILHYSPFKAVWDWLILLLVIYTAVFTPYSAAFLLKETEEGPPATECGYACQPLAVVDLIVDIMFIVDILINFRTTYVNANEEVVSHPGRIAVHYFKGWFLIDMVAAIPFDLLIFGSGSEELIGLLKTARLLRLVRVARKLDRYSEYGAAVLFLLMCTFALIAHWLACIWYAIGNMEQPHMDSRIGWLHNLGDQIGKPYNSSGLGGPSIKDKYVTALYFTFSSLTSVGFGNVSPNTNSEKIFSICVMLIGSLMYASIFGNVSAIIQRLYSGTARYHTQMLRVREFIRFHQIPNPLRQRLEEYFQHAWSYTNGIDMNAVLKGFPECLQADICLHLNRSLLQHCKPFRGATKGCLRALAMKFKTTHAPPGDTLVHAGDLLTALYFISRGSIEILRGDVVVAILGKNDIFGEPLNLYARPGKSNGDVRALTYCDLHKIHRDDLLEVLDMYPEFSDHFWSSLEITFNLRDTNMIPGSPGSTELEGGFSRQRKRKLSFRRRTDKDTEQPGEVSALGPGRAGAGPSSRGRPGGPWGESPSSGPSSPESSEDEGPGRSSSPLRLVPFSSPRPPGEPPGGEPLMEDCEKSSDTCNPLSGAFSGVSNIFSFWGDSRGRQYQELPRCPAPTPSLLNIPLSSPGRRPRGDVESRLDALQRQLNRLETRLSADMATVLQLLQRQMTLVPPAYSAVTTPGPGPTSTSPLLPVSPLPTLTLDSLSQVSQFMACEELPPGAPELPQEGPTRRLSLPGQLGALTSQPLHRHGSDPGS
RECORDED_ENDPOINT: inhibition at 1 µM (%)
Express it in %; write the number only.

Input line: Requested read-out: inhibition at 1 µM. Entry: COc1cc(-n2cnc3cc(-c4ccc(Cl)cc4)sc3c2=O)ccc1OC[C@@H](C)O
Output line: 43.8

====

assay: Half life in rat at 1 mg/kg, iv; format: ADME, organism-based; settings: in vivo
RECORDED_ENDPOINT: half-life

Input line: Request the reported half-life associated with COc1cc(-n2cnc3cc(-c4ccc(Cl)cc4)sc3c2=O)ccc1OCC1(O)CC(F)(F)C1
Output line: > 24 h

====

test: Tmax in dog at 10 mg/kg, po; type: ADME, organism-based, Canis lupus familiaris; details: in vivo
RECORDED_ENDPOINT: Tmax (h)
Value expressed in h; do not type the unit.

Input line: Entry COc1cc(-n2cnc3cc(-c4ccc(Cl)cc4)sc3c2=O)ccc1OCC1(OP(=O)(O)O)CC(F)(F)C1 has what Tmax?
Output line: 9.3

====

assay: Tmax in rat at 10 mg/kg, po; assay type: ADME, organism-based; conditions: in vivo
RECORDED_ENDPOINT: Tmax (h)
Give the quantity in h, number only.

Input line: State the recorded Tmax for this entry: COc1cc(-n2cnc3cc(-c4ccc(Cl)cc4)sc3c2=O)ccc1OCC1(OP(=O)(O)O)CC(F)(F)C1
Output line: 6.7

====

assay: Drug level in Sprague-Dawley rat brain assessed as 6-(4-chlorophenyl)-3-(4-((3,3-difluoro-1-hydroxycyclobutyl)methoxy)-3-methoxyphenyl)thieno[3,2-d]pyrimidin-4(3H)-one level measured on day 4 post 20 hrs of last dosage; assay type: ADME, tissue-based; conditions: in vivo, read-out: Ct
RECORDED_ENDPOINT: concentration (µM)
Just the number in µM, nothing appended.

Input line: Record request: concentration value, item COc1cc(-n2cnc3cc(-c4ccc(Cl)cc4)sc3c2=O)ccc1OCC1(OC(=O)CN)CC(F)(F)C1
Output line: 7.96

====

test: Ratio of drug level in brain to plasma in Sprague-Dawley rat at 10 mg/kg, po measured after 8 hrs; assay type: ADME, organism-based; settings: brain and plasma, read-out: BPR
RECORDED_ENDPOINT: Kp at 8 h

Input line: Can you look up the measured Kp at 8 h of COc1cc(-n2cnc3cc(-c4ccc(Cl)cc4)sc3c2=O)ccc1OCC1(OC(=O)CN)CC(F)(F)C1 for me?
Output line: 2.5

====

test: AUC in cynomolgus monkey at 1 mg/kg, iv; type: ADME, organism-based, Macaca fascicularis; settings: in vivo
RECORDED_ENDPOINT: AUC (µM·h)
Numeric only. Scale: µM·h

Input line: AUC for COc1cc(-n2cnc3cc(-c4ccc(Cl)cc4)sc3c2=O)ccc1OCC1(O)CC(F)(F)C1 ?
Output line: 22.1

====

experiment: Oral bioavailability in dog at 10 mg/kg; type: ADME, organism-based, Canis lupus familiaris; conditions: in vivo
RECORDED_ENDPOINT: bioavailability (%)
Kindly provide the numeric value in % only, without the unit symbol.

Input line: What value of measured bioavailability is listed for COc1cc(-n2cnc3cc(-c4ccc(Cl)cc4)sc3c2=O)ccc1OCC1(OP(=O)(O)O)CC(F)(F)C1 ?
Output line: 33

====

test: Plasma concentration in Sprague-Dawley rat assessed as 6-(4-chlorophenyl)-3-(4-((3-hydroxyoxetan-3-yl)methoxy)-3-methoxyphenyl)thieno[3,2-d]pyrimidin-4(3H)-one level measured on day 4 post 20 hrs of last dosage
RECORDED_ENDPOINT: concentration (nM)
Give the value in nM but do not write nM after it.

Input line: Quick one: concentration of COc1cc(-n2cnc3cc(-c4ccc(Cl)cc4)sc3c2=O)ccc1OCC1(OC(=O)CN)COC1 ?
Output line: 37

====

test: Plasma concentration in Sprague-Dawley rat assessed as 6-(4-chlorophenyl)-3-(4-((3,3-difluoro-1-hydroxycyclobutyl)methoxy)-3-methoxyphenyl)thieno[3,2-d]pyrimidin-4(3H)-one level measured on day 4 post 20 hrs of last dosage
RECORDED_ENDPOINT: concentration (µM)
The figure you give is taken to be in µM; do not add the unit.

Input line: Entry COc1cc(-n2cnc3cc(-c4ccc(Cl)cc4)sc3c2=O)ccc1OCC1(OC(=O)CN)CC(F)(F)C1 : reported concentration = ?
Output line: 12.8

====

assay: Solubility of the compound in phosphate buffer at pH 6.4; format: physicochemical
Provide the recorded solubility for the entries that follow.

Input line: Find the recorded solubility belonging to COc1cc(-n2cnc3cc(-c4ccc(Cl)cc4)sc3c2=O)ccc1OCC1(OC(=O)CN)CCC1 and report it.
Output line: < 1 µg/mL

Input line: Fill in the blank: the reported solubility of COc1cc(-n2cnc3cc(-c4ccc(Cl)cc4)sc3c2=O)ccc1OCC1(O)COC1 is ____.
Output line: < 1 µg/mL

Input line: Bench note: what solubility did COc1cc(-n2cnc3cc(-c4ccc(Cl)cc4)sc3c2=O)ccc1OCC1(O)CCC1 show?
Output line: < 1 µg/mL

Input line: Need solubility of COc1cc(-n2cnc3cc(-c4ccc(Cl)cc4)sc3c2=O)ccc1OCC1(O)CCCC1 , thanks.
Output line: < 1 µg/mL

Input line: Name the reported solubility value associated with the compound COc1cc(-n2cnc3cc(-c4ccc(Cl)cc4)sc3c2=O)ccc1OCC(C)(C)OP(=O)(O)O
Output line: < 1 µg/mL

Input line: # get_value(readout='solubility', item= COc1cc(-n2cnc3cc(-c4ccc(Cl)cc4)sc3c2=O)ccc1OCC1(OP(=O)(O)O)CC(F)(F)C1 )
Output line: 4 µg/mL

====

assay: AUC in dog at 1 mg/kg, iv; assay type: ADME, organism-based, Canis lupus familiaris; conditions: in vivo
RECORDED_ENDPOINT: AUC (µM·h)
# unit: µM·h | format: bare number

Input line: Can you share its AUC? I mean this molecule: COc1cc(-n2cnc3cc(-c4ccc(Cl)cc4)sc3c2=O)ccc1OCC1(O)CC(F)(F)C1
Output line: 5.2

====

assay: Drug uptake in Sprague-Dawley rat brain assessed as parent compound level at 10 mg/kg, po measured after 8 hrs; assay type: ADME, organism-based; conditions: read-out: Drug uptake
For each entry below, report its concentration at 8 h value.

Input line: What value of measured concentration at 8 h is listed for COc1cc(-n2cnc3cc(-c4ccc(Cl)cc4)sc3c2=O)ccc1OCC1(OC(=O)CN)COC1 ?
Output line: 1.13 µM

Input line: Value lookup for concentration at 8 h; key = COc1cc(-n2cnc3cc(-c4ccc(Cl)cc4)sc3c2=O)ccc1OCC1(OC(=O)CN)CCC1
Output line: < 0.003 µM

Input line: Entry under review: COc1cc(-n2cnc3cc(-c4ccc(Cl)cc4)sc3c2=O)ccc1OCC(C)(C)O . Reported concentration at 8 h?
Output line: 7.8 µM

Input line: Could you tell me which concentration at 8 h is on file for COc1cc(-n2cnc3cc(-c4ccc(Cl)cc4)sc3c2=O)ccc1OCC1(OC(=O)CN)CC(F)(F)C1 ?
Output line: 11.3 µM

Input line: # get_value(readout='concentration at 8 h', item= COc1cc(-n2cnc3cc(-c4ccc(Cl)cc4)sc3c2=O)ccc1OCC1(OC(=O)CN)CC1 )
Output line: < 0.003 µM

====

Kindly state remaining at 10 min, 3 µM for each of the entries shown.
test: Metabolic stability in human liver microsomes assessed as compound remaining at 3 uM measured after 10 min; type: ADME; settings: read-out: Stability
# output: bare number, implied unit %

Input line: Quick check: remaining at 10 min, 3 µM of COc1cc(-n2cnc3cc(-c4ccc(Cl)cc4)sc3c2=O)ccc1OCC1(O)CC(F)(F)C1 ?
Output line: 90

Input line: For the compound shown here, COc1cc(-n2cnc3cc(-c4ccc(Cl)cc4)sc3c2=O)ccc1OCC1(O)COC1 , give the reported remaining at 10 min, 3 µM.
Output line: 100

Input line: Look at this compound and give its reported remaining at 10 min, 3 µM. COc1cc(-n2cnc3cc(-c4ccc(Cl)cc4)sc3c2=O)ccc1OCC1(O)CCOCC1
Output line: 87

Input line: What value of remaining at 10 min, 3 µM has been reported for the following compound? COc1cc(-n2cnc3cc(-c4ccc(Cl)cc4)sc3c2=O)ccc1OCC1(O)CC1
Output line: 94

Input line: Need remaining at 10 min, 3 µM of COc1cc(-n2cnc3cc(-c4ccc(Cl)cc4)sc3c2=O)ccc1OCC1(O)CCCC1 , thanks.
Output line: 73

Input line: Requested field: remaining at 10 min, 3 µM. Item: COc1cc(-n2cnc3cc(-c4ccc(Cl)cc4)sc3c2=O)ccc1OCC(C)(C)O
Output line: 100
